Molecular target: UniProtKB P31941
Sequence (P31941 whole entry): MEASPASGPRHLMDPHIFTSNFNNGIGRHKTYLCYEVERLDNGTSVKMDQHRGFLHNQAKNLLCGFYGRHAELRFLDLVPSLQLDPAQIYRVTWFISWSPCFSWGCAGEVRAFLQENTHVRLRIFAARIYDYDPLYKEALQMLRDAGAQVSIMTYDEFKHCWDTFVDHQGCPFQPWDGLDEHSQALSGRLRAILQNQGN
Experiment: Dose Response confirmation of small molecule APOBEC3A DNA Deaminase Inhibitors via a fluorescence-based single-stranded DNA deaminase assay. [Related pubchem assays (depositor defined):AID493011, AID493024]
Assay type: functional
Activity calls are given as the source filed them.
Catalogue of IC50 readings, one per entry.

Solved entries:
{"columns": ["smiles-repr", "target-of-assay", "measured-parameter", "recorded-result"],
 "data": [
  ["CCN1C(=NCCN2CCOCC2)N[C@@H](c2ccccc2)C(C(=O)OC)=C1C", "UniProtKB P31941", "IC50", "4.2 µM (active)"],
  ["CN1CCC(N(C)S(=O)(=O)c2ccc(NC(=O)COc3ccc(Br)cc3Cl)cc2)CC1", "UniProtKB P31941", "IC50", "10.4 µM (active)"]
]}

Give me measured IC50, please, for this molecule: CCN1/C(=C\C(C)=O)Sc2ccc(OC)cc21
2.69 µM (active)

Indicate the recorded IC50 value for this molecule: CCn1c(SCC(=O)NC2CCCCC2)nc2ccccc2c1=O
5.15 µM (active)

----------
Molecular target: Glyceraldehyde-3-phosphate dehydrogenase (Homo sapiens, UniProt P04406)
Sequence (P04406 whole entry): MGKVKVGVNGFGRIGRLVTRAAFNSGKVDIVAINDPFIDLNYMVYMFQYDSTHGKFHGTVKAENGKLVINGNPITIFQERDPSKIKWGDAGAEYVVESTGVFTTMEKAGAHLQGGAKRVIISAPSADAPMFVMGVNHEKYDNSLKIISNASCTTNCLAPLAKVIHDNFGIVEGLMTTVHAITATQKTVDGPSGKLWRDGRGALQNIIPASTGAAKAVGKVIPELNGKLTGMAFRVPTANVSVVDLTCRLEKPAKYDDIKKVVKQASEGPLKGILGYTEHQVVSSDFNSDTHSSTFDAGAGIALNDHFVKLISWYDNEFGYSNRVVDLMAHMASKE
measured-parameter: IC50

Some solved entries appear below for comparison.
{"columns": ["compound", "IC50"],
 "data": [
  ["O=C(O)c1cc(-c2ccc(Cl)cc2)n[nH]1", "> 100 µM (not active)"],
  ["COc1cc(Cl)ccc1S(=O)(=O)Nc1ccc2ccccc2c1", "> 100 µM (not active)"],
  ["Cc1cc(I)cc2c1NC(C(=O)O)C1CC=CC21 (stereo not given)", "> 100 µM (not active)"],
  ["O=C1C(Cl)=C(N2CCOCC2)C(=O)N1c1ccnc(Cl)c1", "> 50 µM (inconclusive)"]
]}

Note: attention shifts to another entry.
Look up and report measured IC50 for this entry: O=C1C2C3C=CC(C3)C2C(=O)N1c1n[nH]c(CCc2ccccc2)n1 (stereo not given)
> 100 µM (not active)

----------
Target: Endoribonuclease toxin MazF (Escherichia coli K-12, UniProt P0AE70)
Sequence (P0AE70 whole entry): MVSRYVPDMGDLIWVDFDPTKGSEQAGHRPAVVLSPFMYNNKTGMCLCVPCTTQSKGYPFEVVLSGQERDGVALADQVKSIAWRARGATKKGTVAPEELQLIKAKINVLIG
Experiment: substrate-only fluorescence increase artefacts – biochemical, single-stranded RNase substrate, counter-screen for MazEF activator project, dose response (AID 588502)
Format: functional
Activity calls are given as the source filed them.
Pick one and only one: y for active, n for inactive

Use the examples below as a reference point.
{"columns": ["smiles-repr", "target-of-assay", "label-value"],
 "data": [
  ["CC(=O)Nc1cccc(C(=O)/C=C/c2ccc(N(C)C)cc2)c1", "Endoribonuclease toxin MazF (Escherichia coli K-12, UniProt P0AE70)", "n"],
  ["Nc1nonc1-n1nnc(C(=O)N/N=C/c2ccc3c(c2)OCO3)c1CSc1ccccc1", "Endoribonuclease toxin MazF (Escherichia coli K-12, UniProt P0AE70)", "n"],
  ["Oc1nc2cc(/N=C/c3c(O)ccc4cc(Br)ccc34)ccc2[nH]1", "Endoribonuclease toxin MazF (Escherichia coli K-12, UniProt P0AE70)", "y"],
  ["CN(C)c1ccc(C(=O)/C=C/c2ccccc2)cc1", "Endoribonuclease toxin MazF (Escherichia coli K-12, UniProt P0AE70)", "n"]
]}

Fill in: this test's call for CCN(CC)c1ccc(/N=C/c2ccc(N(CC)CC)cc2O)cc1 is ___
n

----------
Molecular target: Kallikrein-7 (Homo sapiens, UniProt P49862)
Sequence (P49862 whole entry): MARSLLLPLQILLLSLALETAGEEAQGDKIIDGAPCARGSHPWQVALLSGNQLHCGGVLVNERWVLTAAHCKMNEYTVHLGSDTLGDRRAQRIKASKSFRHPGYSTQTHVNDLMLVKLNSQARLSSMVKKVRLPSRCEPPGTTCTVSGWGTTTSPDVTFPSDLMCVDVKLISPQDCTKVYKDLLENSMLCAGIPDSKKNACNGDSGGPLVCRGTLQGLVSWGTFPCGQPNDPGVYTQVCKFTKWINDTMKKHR
Test: Fluorescence Intensity-based biochemical primary high throughput dose response assay to identify activators of kallikrein-7 (K7) zymogen.
Calls of active or inactive are those of the source.
Form entry, call: pick from active, inactive

Solved cases (3 shown):
{"columns": ["smiles-repr", "target-of-assay", "label-value"],
 "data": [
  ["CCOC(=O)N1CCN(C(=O)COc2ccc3c(c2)C(=O)CC(C)(C)O3)CC1", "Kallikrein-7 (Homo sapiens, UniProt P49862)", "inactive"],
  ["O=S(=O)(c1ccc(-c2cn3ccccc3n2)cc1)N1CCOCC1", "Kallikrein-7 (Homo sapiens, UniProt P49862)", "inactive"],
  ["O=C(Nc1ccc(NC(=O)c2ccccc2O)cc1)Nc1ccc(F)cc1F", "Kallikrein-7 (Homo sapiens, UniProt P49862)", "active"]
]}

Kindly consider the entry below.
So what was the verdict on OCCNc1c2ccccc2nc2c(F)c(F)c(F)c(F)c12 in this test?
inactive

----------
Molecular target: Heat shock factor protein 1 (Mus musculus)
Assay: enhancement of HSF1-driven luciferase signal – cell-based, NIH3T3, luminescence, dose retest, confirmation (AID 435004);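 also: stress induced by proteasome inhibitor MG132 added 30 min after compound; luciferase reporter driven by HSF1 response element in NIH3T3 cells; actives raise luminescence as potentiators of the MG132 stress response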
Format: functional
Active and inactive are the calls of the source.
Answer with one of the outcomes given here: class 1 (active), class 0 (inactive)

Recorded call for Oc1nc(N2CCN(c3ccccc3)CC2)nc2c1CCC2 ?
class 0

Would you mind telling me which call this test gave CCOc1cc(N2CCOCC2)c(OCC)cc1NC(=O)Cc1cccc2ccccc12 ?
class 0

For COc1ccc(C2/C=C\CN(S(=O)(=O)/C=C/c3ccccc3)[C@H](Cc3ccccc3)C(=O)N2Cc2ccc(F)cc2)cc1 (stereo not given in full) , what call appears in the results of this test?
class 0

Outcome? CC1(C)CC(=O)C(=Cc2cn(-c3ccccc3)nc2-c2ccccc2)C(=O)C1
class 1

Look up the recorded call for C=CCNC(=O)CSc1nnc(C(CC)N(C)C)n1C1CCCCC1 (stereo not given) in this test.
class 0

# lookup: test call for CCOC(=O)c1c(C)[nH]c(C)c1S(=O)(=O)N1CCN(c2cccc(C)c2)C(C)C1 (stereo not given)
class 0

Which outcome was assigned to O=C(O)c1cnn(-c2nc(-c3cccc([N+](=O)[O-])c3)cs2)c1C(F)(F)F in this test?
class 0

Write down the call the test reported for this compound. Item: COc1ccc(NS(=O)(=O)c2cc(NC(=O)c3cnccn3)ccc2N2CCCC2)cc1
class 0

Tell me the recorded outcome of this test for O=C(NCc1cccc(F)c1)c1noc2c1CCCC2 .
class 0

Record lookup: outcome of this test for O=S(=O)(Nc1cccc2ccccc12)c1cccc2nonc12 ?
class 0

----------
Reported IC50 values for the following compounds.
Target: G-protein coupled receptor 55 (Homo sapiens, UniProt Q9Y2T6)
Sequence (Q9Y2T6 whole entry): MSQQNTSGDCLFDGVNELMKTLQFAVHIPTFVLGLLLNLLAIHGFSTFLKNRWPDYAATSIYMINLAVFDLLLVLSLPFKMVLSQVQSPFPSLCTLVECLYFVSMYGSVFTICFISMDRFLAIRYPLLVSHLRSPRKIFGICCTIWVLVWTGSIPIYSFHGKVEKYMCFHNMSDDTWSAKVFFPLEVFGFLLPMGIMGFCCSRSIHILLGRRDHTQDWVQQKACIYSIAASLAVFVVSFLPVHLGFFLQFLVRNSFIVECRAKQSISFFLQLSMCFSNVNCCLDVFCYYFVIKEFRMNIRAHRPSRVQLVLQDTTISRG
Assay: inhibition of LPI-stimulated GPR55 beta-arrestin translocation – imaging, U2OS, beta-arrestin-GFP, LPI agonist, primary screen (AID 2013);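 also: antagonist potency measured as reduced agonist-driven arrestin aggregation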
Assay type: functional
Activity calls are given as the source filed them.

{"columns": ["compound", "recorded-result"],
 "data": [
  ["CCc1ccccc1N(CC)C(=O)CCc1nc(-c2ccc(C)cc2)no1", "1.06 µM (active)"]
]}

Lab note: record IC50 of CC(NC(=O)/C(C#N)=C/c1ccc(Cl)c([N+](=O)[O-])c1)c1ccccc1 (centres undefined) tested on G-protein coupled receptor 55 (Homo sapiens, UniProt Q9Y2T6).
8.95 µM (active)

For G-protein coupled receptor 55 (Homo sapiens, UniProt Q9Y2T6), give the measured IC50 of the entry O=C1C=CC(=O)N1CCCCCCN1C(=O)C=CC1=O
9.79 µM (active)

Enter IC50 (test system G-protein coupled receptor 55 (Homo sapiens, UniProt Q9Y2T6)) for CCC(C)NS(=O)(=O)c1ccc(NC(=O)C(Sc2ccccc2)c2ccccc2)cc1 (centres undefined)
0.592 µM (active)

----------
Target: Induced myeloid leukemia cell differentiation protein Mcl-1 (Homo sapiens)
Sequence (Q07820 whole entry): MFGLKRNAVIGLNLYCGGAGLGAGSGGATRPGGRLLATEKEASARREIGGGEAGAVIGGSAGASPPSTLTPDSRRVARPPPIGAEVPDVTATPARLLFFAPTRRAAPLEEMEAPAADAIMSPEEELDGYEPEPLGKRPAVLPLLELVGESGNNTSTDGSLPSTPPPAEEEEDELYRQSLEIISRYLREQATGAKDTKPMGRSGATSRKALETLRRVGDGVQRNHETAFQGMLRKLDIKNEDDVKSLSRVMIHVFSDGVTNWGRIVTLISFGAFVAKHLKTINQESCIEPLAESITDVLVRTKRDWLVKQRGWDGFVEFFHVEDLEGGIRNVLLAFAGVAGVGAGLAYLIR
Type: functional
Activity calls are given as the source filed them.
measured-parameter: IC50

{"columns": ["molecule", "target-of-assay", "IC50"],
 "data": [
  ["CN1c2ccccc2N(C)C1(C)c1ccccc1", "Induced myeloid leukemia cell differentiation protein Mcl-1 (Homo sapiens)", "4.95 µM (active)"],
  ["C1=CC2c3ccccc3NC(c3ccncc3)C2C1 (stereo not drawn)", "Induced myeloid leukemia cell differentiation protein Mcl-1 (Homo sapiens)", "2.42 µM (active)"],
  ["O=C(NCCCO)c1ccc2nc(-c3ccco3)c(-c3ccco3)nc2c1", "Induced myeloid leukemia cell differentiation protein Mcl-1 (Homo sapiens)", "3.45 µM (not active)"],
  ["CN(C)c1ccc(NC(=O)c2ccc(COc3cccc(Cl)c3)o2)cc1", "Induced myeloid leukemia cell differentiation protein Mcl-1 (Homo sapiens)", "23.4 µM (active)"],
  ["CCOC(=O)C1=C(O)c2ccccc2C(=O)/C1=C\\c1ccc(CC)cc1", "Induced myeloid leukemia cell differentiation protein Mcl-1 (Homo sapiens)", "7.19 µM (active)"],
  ["Cc1c(Cc2ccccc2)c(NCCN(C)C)n2c(nc3ccccc32)c1C#N", "Induced myeloid leukemia cell differentiation protein Mcl-1 (Homo sapiens)", "3.29 µM (active)"]
]}

Would you please give the reported IC50 of CN(C)c1ccc(NC(=O)CN2C(=O)CN=C(c3ccccc3)c3cc(Cl)ccc32)cc1 with Induced myeloid leukemia cell differentiation protein Mcl-1 (Homo sapiens)?
0.856 µM (not active)

Report IC50 under test system Induced myeloid leukemia cell differentiation protein Mcl-1 (Homo sapiens) for COc1ccccc1N1C(=O)C2ON(c3ccccc3)C(c3ccc(N(C)C)cc3)C2C1=O (stereo not drawn) .
9.03 µM (not active)

----------
Biological target: Heat shock factor protein 1 (Mus musculus, UniProt P38532)
Sequence (P38532 whole entry): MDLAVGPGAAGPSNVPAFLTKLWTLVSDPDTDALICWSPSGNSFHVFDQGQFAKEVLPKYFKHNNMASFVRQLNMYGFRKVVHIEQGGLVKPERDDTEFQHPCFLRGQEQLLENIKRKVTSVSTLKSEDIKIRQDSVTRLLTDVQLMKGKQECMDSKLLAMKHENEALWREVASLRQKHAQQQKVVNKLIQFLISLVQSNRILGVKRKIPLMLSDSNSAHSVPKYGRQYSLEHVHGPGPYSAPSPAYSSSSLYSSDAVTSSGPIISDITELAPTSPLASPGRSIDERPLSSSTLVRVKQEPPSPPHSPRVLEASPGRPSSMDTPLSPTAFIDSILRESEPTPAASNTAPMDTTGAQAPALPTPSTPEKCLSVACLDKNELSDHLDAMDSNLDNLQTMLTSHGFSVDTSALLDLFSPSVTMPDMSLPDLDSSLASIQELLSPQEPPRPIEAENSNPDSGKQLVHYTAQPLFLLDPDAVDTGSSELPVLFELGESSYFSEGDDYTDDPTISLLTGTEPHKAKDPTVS
Experiment: decrease of HSF1-responsive luciferase luminescence – cell-based, NIH3T3, dose retest, confirmation (AID 2382);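 also: NIH3T3 fibroblasts with HSF1-driven luciferase reporter stressed by proteasome inhibitor MG132; luminescence from HSF1-driven luciferase expression after 8 hours of MG132 stress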
Type: functional
Active and inactive are the calls of the source.
EC50 by entry:

A selection of reference data follows.
{"columns": ["compound", "recorded-result"],
 "data": [
  ["COc1ccc(-c2nc3ccccc3c(=O)n2-c2cccnc2)cc1", "> 195 µM (not active)"],
  ["CCc1cc2c(NCCC(=O)O)nc(C)nc2s1", "> 195 µM (not active)"],
  ["CCN1C(C(=O)c2ccccc2)=C(O)c2ccccc2S1(=O)=O", "> 195 µM (not active)"],
  ["COc1ccccc1-n1c(S)nnc1CNC(=O)c1cccc([N+](=O)[O-])c1C", "> 195 µM (not active)"],
  ["COc1ccc(C(=O)NNC(=O)c2ccccn2)cc1", "1.11 µM (active)"],
  ["Cc1cccc(C)c1-n1c(C)cc(/C=C2\\NC(=O)NC2=O)c1C", "> 195 µM (not active)"],
  ["C=CCOCCN(CCOCC=C)C1=NS(=O)(=O)c2ccccc21", "> 195 µM (not active)"],
  ["CCOc1ccc(NC(=O)COC(=O)C2(C)CC2(Cl)Cl)c([N+](=O)[O-])c1 (configuration not stated)", "> 195 µM (not active)"]
]}

Identify EC50 associated with the compound Cc1cc(=O)oc2cc(OCC#N)ccc12
> 195 µM (not active)
